Attribution: PubChem BioAssay AID200

tested on: B6C3F1 mice, B16 melanoma ip, median survival T/C; test: NCI In Vivo Anticancer Drug Screen. Data for tumor model B16 Melanoma (intraperitoneal) in B6C3F1 mice; conditions: endpoint: median survival time; dose: 25.0 mg/kg/injection; schedule: Q01DX009 (ip); vehicle: suspension in saline
Inconclusive results and toxic doses are left out. How the source made its calls: active means survival T/C of 150% or more; inactive means T/C below 125% in these data.
Output constraint: value belongs to yes (active), no (inactive)

Use the examples below as a reference point.
{"columns": ["molecule", "class_assignment"],
 "data": [
  ["C1OC1CO[C@@H]1CO[C@H]2[C@@H]1OC[C@H]2OCC1CO1 (stereo partly specified)", "no"],
  ["O=c1c(O)c(-c2ccc(O)c(O)c2)oc2cc(O)cc(O)c12", "no"],
  ["CC1=CC(=NN=c2cc(C)n([O-])c(C)c2)C=C(C)[N+]1=O", "no"],
  ["NC(=O)c1ncn2c(=O)n(CCCl)nnc12", "yes"],
  ["Cc1cn(C2CC3[O][Sn]([c]4ccccc4)([c]4ccccc4)[O]CC3O2)c(=O)[nH]c1=O (stereo unspecified)", "no"]
]}

Next, consider the following molecule.
How did this test come out for `O=c1[nH]c(=O)n([C@H]2CCCO2)cc1F` ?
no

====

tested on: B6C3F1 mice, B16 melanoma ip, median survival T/C; assay: NCI In Vivo Anticancer Drug Screen. Data for tumor model B16 Melanoma (intraperitoneal) in B6C3F1 mice; conditions: endpoint: median survival time; dose: 12.5 mg/kg/injection; schedule: Q01DX009 (ip); vehicle: saline
Inconclusive results and toxic doses are left out. How the source made its calls: active means survival T/C of 150% or more; inactive means T/C below 125% in these data.
Output constraint: value belongs to y = active, n = inactive

{"columns": ["molecule", "tgt", "class_assignment"],
 "data": [
  ["CCOc1ccc(-c2nc3ccc(-c4nc5ccc(N6CCN(C)CC6)cc5[nH]4)cc3[nH]2)cc1", "B6C3F1 mice, B16 melanoma ip, median survival T/C", "n"],
  ["c1cc[c]([Sn]([NH]c2ncnc3[nH]cnc23)([NH]c2ncnc3[nH]cnc23)[c]2ccccc2)cc1", "B6C3F1 mice, B16 melanoma ip, median survival T/C", "n"],
  ["CCN=C=NCCCN(C)C", "B6C3F1 mice, B16 melanoma ip, median survival T/C", "n"],
  ["Oc1ccc(CCl)c2cccnc12", "B6C3F1 mice, B16 melanoma ip, median survival T/C", "n"]
]}

How did this test come out for `Clc1ccc2c(Cl)ncnc2c1` ?
n

How did this test come out for `CNC(=O)ON(C(C)=O)C(=O)NC` ?
n

How did this test come out for `Oc1ccc(O)cc1` ?
n

How did this test come out for `COc1cc(NCCCCCCCNC(C)C)c2nccc(C)c2c1` ?
n

How did this test come out for `CC(C)(C)C(=O)Oc1ccc(N=C(N)N)cc1` ?
n

How did this test come out for CCCC(C(=O)OCCN1CCCC12CCCCC2)C1CCCC1 (stereo unspecified) ?
n

How did this test come out for `CC1=C(C)C(=O)O[C@@H]([C@](C)(O)[C@]2(O)CC[C@@]3(O)[C@@H]4C[C@H]5O[C@]56CC=CC(=O)[C@]6(C)[C@H]4CC[C@]23C)C1` ?
y

====

Field: T/C. Provide a value for each of the molecules that follow.
system: B6C3F1 mice, B16 melanoma ip, median survival T/C; assay: NCI In Vivo Anticancer Drug Screen. Data for tumor model B16 Melanoma (intraperitoneal) in B6C3F1 mice; settings: endpoint: median survival time; dose: 100.0 mg/kg/injection; schedule: Q01DX009 (ip); vehicle: Klucel (hydroxypropylcellulose) (HPC); higher = longer survival
Inconclusive results and toxic doses are left out. Where a SMILES comes first, the peptide text is derived from it.

Consider the following illustrative entries.
{"columns": ["molecule", "T/C"],
 "data": [
  ["N/C(=N\\OC(=O)Nc1ccc(CSc2ccc(Cl)cc2)o1)c1ccccn1", "91 % of control"],
  ["CC(C)CC(NC(=O)CNC(=O)C(CC(C)C)NC(=O)CN)C(=O)O (centres undefined) (H-GLGL-OH; configuration not given here)", "120 % of control"],
  ["c1ccc(CN2COc3c(ccc4c3OCN(Cc3ccccc3)C4)C2)cc1", "95 % of control"],
  ["CCCC(NC(=O)OCc1ccccc1)C(=O)NC(C)C(=O)O (centres undefined)", "102 % of control"],
  ["CC(C)C(NC(=O)OC(C)(C)C)C(=O)O (centres undefined)", "90 % of control"],
  ["COc1cc2c(c3c1c(=O)c1cccc(F)c1n3C)C=CC(C)(C)O2", "88 % of control"]
]}

Would you mind listing T/C for each of the following molecules?
1. CC(C)(C)OC(=O)NC(CCCNC(=O)OCc1ccccc1)C(=O)O (centres undefined)
2. COCC1OC2OC3C(COC)OC(OC4C(COC)OC(OC5C(COC)OC(OC6C(COC)OC(OC7C(COC)OC(OC8C(COC)OC(OC1C(O)C2O)C(O)C8O)C(O)C7O)C(O)C6O)C(O)C5O)C(O)C4O)C(O)C3O (centres undefined) (tested in a mixture with another compound)
3. C[Si](C)(C)O/C=C1/CCOC1=O

1. 110 % of control
2. 105 % of control
3. 95 % of control

====

tested on: B6C3F1 mice, B16 melanoma ip, median survival T/C; assay: NCI In Vivo Anticancer Drug Screen. Data for tumor model B16 Melanoma (intraperitoneal) in B6C3F1 mice; settings: endpoint: median survival time; dose: 25.0 mg/kg/injection; schedule: Q01DX009 (ip); vehicle: saline
Inconclusive results and toxic doses are left out. Rule for the calls: active = survival T/C of 150% or more; inactive = T/C below 125% in these data. Where a SMILES comes first, the peptide text is derived from it.
Output constraint: value belongs to 1 = active, 0 = inactive

Use the examples below as a reference point.
{"columns": ["molecule", "class_assignment"],
 "data": [
  ["CC(=O)OCC1OC(n2ccc(N)nc2=O)C(OC(C)=O)C1OC(C)=O (stereo unspecified)", 0],
  ["CC1=C(C)C(=O)O[C@@H]([C@](C)(O)[C@]2(O)CC[C@@]3(O)[C@@H]4C[C@H]5O[C@]56CC=CC(=O)[C@]6(C)[C@H]4CC[C@]23C)C1", 1]
]}

How did this test come out for CCOC(=O)C1=C(C#N)C2(CCC(OCc3ccccc3)CC2)C(=O)O1 (stereo unspecified) ?
0

How did this test come out for O=C(O)CCC(NC(=O)OCc1ccccc1)C(=O)NCC(=O)O (stereo unspecified) (HELM PEPTIDE1{[O=C(OCc1ccccc1)[*:2]].[O=C(O)CCC(N[*:1])C(=O)[*:2]].G}$$$$V2.0) ?
0

How did this test come out for `CC(C)(C)C(=O)Oc1ccc(N=C(N)N)cc1` ?
0

How did this test come out for `O=S(=O)(O)c1cc(N=C=S)ccc1/C=C/c1ccc(N=C=S)cc1S(=O)(=O)O` ?
0

How did this test come out for `CSC(SC)=C1C(=O)NC(=O)NC1=O` ?
0

How did this test come out for `O=C[C@@H](CO)O[C@H](C=O)c1c[nH]c(=O)[nH]c1=O` ?
0

How did this test come out for `COCCOC(=O)Cc1ccc(OC)c(OC)c1` ?
0

How did this test come out for `c1cc(-c2cc3ccc(C4=NCCN4)cc3[nH]2)ccc1C1=NCCN1` ?
0

How did this test come out for `CCCCCCCCCCCCOCCCOP(=O)([O-])OCC[N+](C)(C)C` ?
0

How did this test come out for CN(Cc1cnc2nc(N)nc(N)c2n1)c1c(Cl)cc(C(=O)NC(CCC(=O)O)C(=O)O)cc1Cl (stereo unspecified) ?
0

How did this test come out for `Oc1ccccc1C=NCCC[N-]CCCN=Cc1ccccc1O.[Co]` ?
0

How did this test come out for `NC(=O)Oc1cc(OC(N)=O)cc(N(CCCl)CCCl)c1` ?
0

How did this test come out for `COc1cc(NCCCCCCCNC(C)C)c2nccc(C)c2c1` ?
0

====

tested on: B6C3F1 mice, B16 melanoma ip, median survival T/C; assay: NCI In Vivo Anticancer Drug Screen. Data for tumor model B16 Melanoma (intraperitoneal) in B6C3F1 mice; conditions: endpoint: median survival time; dose: 6.25 mg/kg/injection; schedule: Q01DX009 (ip); vehicle: Klucel (hydroxypropylcellulose) (HPC)
Inconclusive results and toxic doses are left out. Rule for the calls: active = survival T/C of 150% or more; inactive = T/C below 125% in these data.
Output constraint: value belongs to active, inactive

{"columns": ["compound", "class_assignment"],
 "data": [
  ["CC1=CC(=Nc2ccc(N(CCCl)CCCl)cc2)C=C(C)C1=O", "active"],
  ["C=C1C(=O)O[C@@H]2[C@H]3O[C@]3(C)CCC=C(C)CC[C@@H]12", "inactive"],
  ["CC(C)CC(NC(=O)CNC(=O)CNC(=O)OCc1ccccc1)C(=O)O (stereo not drawn)", "inactive"],
  ["COc1ccc(C(Nc2ccccc2)C(=O)c2ccccc2)cc1 (stereo not drawn)", "inactive"],
  ["O=c1oc2c(O)c(O)cc3c(=O)oc4c(O)c(O)cc1c4c23", "inactive"],
  ["N#C[Se-].c1ccc([Te+](c2ccccc2)c2ccccc2)cc1", "inactive"]
]}

How did this test come out for `CCc1ccc(C2=C(O)C(=O)C(c3ccccc3)=C(O)C2=O)cc1` ?
inactive

How did this test come out for `C[C@@H]1C[C@H]2[C@@H]3CCC4=CC(=O)C=C[C@]4(C)[C@@]3(F)[C@@H](O)C[C@]2(C)[C@@]1(O)C(=O)CO` ?
inactive
